Data provenance: PubChem BioAssay (NCI)

System: SNB-19 CNS
Experiment: NCI-60 one-dose screen, 48 h (100 = growth as untreated, 0 = no growth, -100 = all killed)
Settings: 10 µM
About 83,000 compounds went through this panel and 20% of them were active in at least one assay; those are over-represented in the sample as a whole.
readout: growth (%)
Respond with the bare value in %.

Please review the entries below; each comes with its answer.
compound	test.target	growth, %
Cc1nc2ccccc2c(N)c1-c1cc(C)c2c(C)nc3ccccc3c2n1	SNB-19 CNS	22.6
N#CC1=C(Nc2ccccc2Cl)SC(c2ccccc2O)NC1=O (configuration not stated)	SNB-19 CNS	111
COc1ccc(/C=C/C(C)=N/OCC(=O)O)cc1	SNB-19 CNS	103
CC1(C)N=C(N)N=C(N)N1c1ccc(CCc2ccccc2)c(Cl)c1	SNB-19 CNS	31.6
COC(=O)C1=NNC(=S)N(c2cc(C)[nH]n2)C(=O)C1	SNB-19 CNS	98

# return recorded growth for input O=C(Nc1cccc(-n2cc(-c3ccncc3)c(-c3cc(O)cc(Cl)c3)n2)c1)c1ccc(N2CCOCC2)c(C(F)(F)F)c1
12.1

Return growth for the following compound: O=C1OCC2=C1C(c1ccc(Cl)c(Cl)c1)c1cc3c(cc1N2CCO)OCCO3 (configuration not stated)
33.1

Please report the measured growth for C#Cc1ccc(-n2c(/C=C/c3ccc(C(F)(F)F)cc3)nc3ncccc3c2=O)cc1
68

// Input: Clc1cccc(-c2nc(-c3cccs3)no2)c1 . Output its growth only.
104

Please supply the value of reported growth for the item COc1ccc(OC)c(NC(=O)c2sc3nc4c(cc3c2N)C(=O)CCC4)c1
82.2

Quick one: give measured growth for COc1ccc(-c2nc(-c3nc4cc(Cl)c(Cl)cc4[nH]3)c3ccccn23)cc1
50.5

----------
Tested on: SK-MEL-28 melanoma
Assay: NCI-60 one-dose screen, 48 h (100 = growth as untreated, 0 = no growth, -100 = all killed)
Conditions: 10 µM
About 83,000 compounds went through this panel and 20% of them were active in at least one assay; those are over-represented in the sample as a whole.
readout: growth (%)
Give just the number in %; leave the unit off.

Some molecules with known growth results, for comparison:
molecule	display.unit	growth
O=C1C(c2ccccc2)C2C=CC(C2)N1O (centres undefined)	%	118
CN1CCC(CNc2cc(C3(C(=O)Nc4cc(C(=O)Nc5ccc(Cl)c(C(F)(F)F)c5)ccc4F)CC3)ncn2)CC1	%	-54.7
Nc1c(C(=O)Nc2cccc(F)c2)sc2nc3c(cc12)C(=O)CCC3	%	49.7
c1ccc2c(c1)oc1c3c(ccc12)NCCC3	%	107
Nc1ccn(C2CC(O)C(CO)O2)c(=O)n1 (centres undefined)	%	120

Report value: growth, system: SK-MEL-28 melanoma, molecule: COc1ccc2c(c1)sc1nc(-c3ccccc3)c(-c3cccnc3)n12
110

Report value only: growth, SK-MEL-28 melanoma, CN(C)Cc1cn(-c2ncc(-c3ccc(C(F)(F)F)cc3)c(NC3CCCCCC3)n2)nn1
97.4

Report growth under test system SK-MEL-28 melanoma for O=C(Nc1cccc(-n2cc(-c3ccncc3)c(-c3cc(O)cc(Cl)c3)n2)c1)c1cc(C(F)(F)F)cc(C(F)(F)F)c1 .
63.6

Look up and report growth, with SK-MEL-28 melanoma as system, for O=C(C[P+](c1ccccc1)(c1ccccc1)c1ccccc1)C[P+](c1ccccc1)(c1ccccc1)c1ccccc1
-42

Report value only: growth, SK-MEL-28 melanoma, Cc1ccc(NC(=O)Nc2c(Cl)cccc2Cl)cn1
130

Specify the recorded growth for CN1CCCNc2c(c(=O)c2=O)NCCCN(C)CCCNc2c(c(=O)c2=O)NCCCN(C)CCCNc2c(c(=O)c2=O)NCCCN(C)CCCNc2c(c(=O)c2=O)NCCCN(C)CCCNc2c(c(=O)c2=O)NCCCN(C)CCCNc2c(c(=O)c2=O)NCCCN(C)CCCNc2c(c(=O)c2=O)NCCC1 , system: SK-MEL-28 melanoma.
22.6

Report its growth with SK-MEL-28 melanoma as the test system: COc1cccc(C2C3=C(COC3=O)N(CCO)c3cc(OC)ccc32)c1 (centres undefined)
56.1

Send back SK-MEL-28 melanoma growth of COc1cc(Cl)cc(-c2nn(-c3cccc(NC(=O)Nc4cc(C(F)(F)F)cc(C(F)(F)F)c4)c3)cc2-c2ccncc2)c1 only.
6.55

Return reported growth for target or system SK-MEL-28 melanoma, item CCN(CC)CCC(CNc1c(C)cnc2cc(Cl)ccc12)c1ccc(Cl)c(Cl)c1 (centres undefined) .
-75.3

Please report the measured growth for Nc1ccc2c(c1)Cc1cc(N)c(Br)cc1-2 tested on SK-MEL-28 melanoma.
115

Retrieve growth on SK-MEL-28 melanoma; query Oc1[nH]c2ccc(Cl)cc2c1/C=c1/ccc2c(c1)N=C(c1cc(F)cc(F)c1)N=2
65.4

# return growth for CC(C)(Cl)CCC1=C(Cl)C(=O)c2ccccc2C1=O , test system: SK-MEL-28 melanoma
56.9

Fill: growth (SK-MEL-28 melanoma) for this molecule N=C(N)c1ccc(-c2ccc(-c3ccco3)o2)cc1
75.1

Output reported growth of the molecule O=C(O)CC(Cl)C(Cl)CC(=O)O (centres undefined) on SK-MEL-28 melanoma.
107
